experiment.summary: Area under curve was evaluated in rat at 30 mg/kg dose administered orally
run.conditions: in vivo, po
measurement.name: AUC (µM·h)
I only need the number, in µM·h, no unit after it.

[in] Using the record for CCCCCCN1C(=O)C(CCOc2ccccc2CC(=O)O)Oc2ccccc21 (stereo unspecified) , report its AUC.
[out] 406

====

experiment.summary: Half-life in rat at 30 mg/kg dose administered orally
run.conditions: in vivo, po
Overview of reported half-life across a group of compounds:
I only need the number, in h, no unit after it.

CCCCCCN1C(=O)[C@@H](CCOc2ccccc2CC(=O)O)Oc2ccccc21	14.5
O=C(O)Cc1ccccc1OCC[C@H]1Oc2ccccc2N(CCCCCCF)C1=O	7.9
O=C(O)Cc1ccccc1OCCC1Oc2ccccc2N(CCCCCCCO)C1=O (centres undefined)	7
CC(=O)CCCCN1C(=O)C(CCOc2ccccc2CC(=O)O)Oc2ccccc21 (centres undefined)	9.8
CCCCCCN1C(=O)C(CCOc2ccccc2CC(=O)O)Oc2ccccc21 (centres undefined)	14

[in] Using the record for O=C(O)Cc1ccccc1OCCC1Oc2ccccc2N(CCCCCCF)C1=O (centres undefined) , report its half-life.
[out] 16

[in] Using the record for O=C(O)Cc1ccccc1OCCC1Oc2ccccc2N(CCCCCCO)C1=O (centres undefined) , report its half-life.
[out] 0.6

[in] Using the record for COCCCCN1C(=O)[C@@H](CCOc2ccccc2CC(=O)O)Oc2ccccc21 , report its half-life.
[out] 6.7

[in] Using the record for C/C(CCCCN1C(=O)C(CCOc2ccccc2CC(=O)O)Oc2ccccc21)=N\O (centres undefined) , report its half-life.
[out] 4.2
